subject of test: calcium channel (Oryctolagus cuniculus, UniProt P15381)
Construct: from tissue; host or cells: rabbit heart membrane preparation
Sequence (P15381 whole entry, other chains not shown): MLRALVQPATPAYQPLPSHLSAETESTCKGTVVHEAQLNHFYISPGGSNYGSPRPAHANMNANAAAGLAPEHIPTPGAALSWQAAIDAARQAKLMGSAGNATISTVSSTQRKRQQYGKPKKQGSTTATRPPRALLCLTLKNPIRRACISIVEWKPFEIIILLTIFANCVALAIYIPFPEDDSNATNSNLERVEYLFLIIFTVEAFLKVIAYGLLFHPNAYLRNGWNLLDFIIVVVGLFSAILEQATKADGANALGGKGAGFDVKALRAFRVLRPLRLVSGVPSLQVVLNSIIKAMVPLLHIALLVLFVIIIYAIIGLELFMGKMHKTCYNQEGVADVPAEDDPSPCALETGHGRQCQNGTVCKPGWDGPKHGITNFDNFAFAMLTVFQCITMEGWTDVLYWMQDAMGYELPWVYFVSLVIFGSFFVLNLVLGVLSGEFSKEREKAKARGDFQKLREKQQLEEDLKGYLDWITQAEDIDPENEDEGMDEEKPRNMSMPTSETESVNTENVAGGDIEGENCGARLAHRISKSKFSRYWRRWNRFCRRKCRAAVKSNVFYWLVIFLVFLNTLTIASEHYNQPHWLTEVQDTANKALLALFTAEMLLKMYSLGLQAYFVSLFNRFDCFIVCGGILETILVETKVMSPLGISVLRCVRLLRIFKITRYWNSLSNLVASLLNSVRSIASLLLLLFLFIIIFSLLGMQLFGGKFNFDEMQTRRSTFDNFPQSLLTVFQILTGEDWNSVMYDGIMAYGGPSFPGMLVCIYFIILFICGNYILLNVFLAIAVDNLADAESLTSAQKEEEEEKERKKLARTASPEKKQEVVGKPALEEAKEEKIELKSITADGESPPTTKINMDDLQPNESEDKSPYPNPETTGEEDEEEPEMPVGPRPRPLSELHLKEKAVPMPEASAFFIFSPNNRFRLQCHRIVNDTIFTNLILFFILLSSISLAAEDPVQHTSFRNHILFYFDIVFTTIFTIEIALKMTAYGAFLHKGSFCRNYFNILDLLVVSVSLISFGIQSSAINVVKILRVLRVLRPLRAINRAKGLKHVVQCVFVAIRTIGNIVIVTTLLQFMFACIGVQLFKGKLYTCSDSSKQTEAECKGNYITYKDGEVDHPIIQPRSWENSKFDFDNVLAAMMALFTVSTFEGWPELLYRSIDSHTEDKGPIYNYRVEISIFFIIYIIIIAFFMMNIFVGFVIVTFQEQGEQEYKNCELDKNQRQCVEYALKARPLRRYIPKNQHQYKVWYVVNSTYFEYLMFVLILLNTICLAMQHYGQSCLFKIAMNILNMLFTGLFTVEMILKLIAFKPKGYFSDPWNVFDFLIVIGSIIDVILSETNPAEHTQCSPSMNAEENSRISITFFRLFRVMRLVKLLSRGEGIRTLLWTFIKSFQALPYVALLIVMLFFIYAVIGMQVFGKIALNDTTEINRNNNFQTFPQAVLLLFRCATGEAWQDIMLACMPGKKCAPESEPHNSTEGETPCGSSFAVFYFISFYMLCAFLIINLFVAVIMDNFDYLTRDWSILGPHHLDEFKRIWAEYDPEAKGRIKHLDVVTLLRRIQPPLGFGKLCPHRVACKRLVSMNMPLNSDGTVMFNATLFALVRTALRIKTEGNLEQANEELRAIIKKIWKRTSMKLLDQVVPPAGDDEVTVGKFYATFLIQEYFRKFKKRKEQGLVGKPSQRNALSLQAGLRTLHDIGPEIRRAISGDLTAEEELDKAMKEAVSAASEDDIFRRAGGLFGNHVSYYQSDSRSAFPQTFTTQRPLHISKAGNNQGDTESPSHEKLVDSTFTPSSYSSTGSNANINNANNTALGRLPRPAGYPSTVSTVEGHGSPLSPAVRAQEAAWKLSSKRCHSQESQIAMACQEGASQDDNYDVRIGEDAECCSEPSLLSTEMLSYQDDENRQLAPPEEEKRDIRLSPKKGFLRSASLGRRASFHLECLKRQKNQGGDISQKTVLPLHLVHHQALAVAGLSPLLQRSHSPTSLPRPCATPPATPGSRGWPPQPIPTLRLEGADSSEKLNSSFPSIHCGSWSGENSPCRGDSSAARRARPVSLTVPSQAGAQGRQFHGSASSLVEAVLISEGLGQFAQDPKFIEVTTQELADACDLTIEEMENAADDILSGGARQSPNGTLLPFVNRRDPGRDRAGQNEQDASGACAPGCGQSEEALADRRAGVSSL
Sequence (P13806 27-960 partner limits assumed, other chains not shown): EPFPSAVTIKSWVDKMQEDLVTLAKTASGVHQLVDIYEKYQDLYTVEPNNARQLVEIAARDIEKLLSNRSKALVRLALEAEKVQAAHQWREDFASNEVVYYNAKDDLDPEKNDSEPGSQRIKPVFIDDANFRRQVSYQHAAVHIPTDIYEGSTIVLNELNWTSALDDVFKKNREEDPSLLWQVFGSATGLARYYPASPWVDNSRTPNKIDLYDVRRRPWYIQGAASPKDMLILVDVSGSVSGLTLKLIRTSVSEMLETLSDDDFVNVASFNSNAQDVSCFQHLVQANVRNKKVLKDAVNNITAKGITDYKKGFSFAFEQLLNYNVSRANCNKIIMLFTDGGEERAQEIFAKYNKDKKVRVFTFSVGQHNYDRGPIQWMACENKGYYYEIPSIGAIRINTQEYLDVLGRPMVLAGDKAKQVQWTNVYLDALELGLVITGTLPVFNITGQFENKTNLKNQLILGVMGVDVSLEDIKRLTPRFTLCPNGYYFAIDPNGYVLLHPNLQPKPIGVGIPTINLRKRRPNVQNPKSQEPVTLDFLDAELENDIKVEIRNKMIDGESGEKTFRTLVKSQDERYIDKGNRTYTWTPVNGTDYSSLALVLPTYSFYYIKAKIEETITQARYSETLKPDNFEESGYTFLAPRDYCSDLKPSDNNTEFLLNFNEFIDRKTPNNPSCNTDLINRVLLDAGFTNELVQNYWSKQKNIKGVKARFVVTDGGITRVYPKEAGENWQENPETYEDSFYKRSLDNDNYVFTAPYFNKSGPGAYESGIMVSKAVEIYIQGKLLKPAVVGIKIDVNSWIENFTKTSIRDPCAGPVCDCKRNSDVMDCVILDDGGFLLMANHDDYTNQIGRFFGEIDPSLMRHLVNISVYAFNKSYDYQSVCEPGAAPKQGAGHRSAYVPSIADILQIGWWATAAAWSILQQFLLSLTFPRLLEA
Sequence (P13806 961-1106 partner limits assumed, other chains not shown): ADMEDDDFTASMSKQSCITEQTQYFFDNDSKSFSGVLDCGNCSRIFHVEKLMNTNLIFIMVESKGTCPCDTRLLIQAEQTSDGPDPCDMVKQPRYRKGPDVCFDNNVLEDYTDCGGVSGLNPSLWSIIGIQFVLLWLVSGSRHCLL
experiment description: Assay for Inhibition of Nitrendipine Binding (3H-nitrendipine, heart membranes)
Set-up: species or system rabbit
assay conditions: Table 2, compounds of Formula II; 3H-nitrendipine displacement, rabbit heart membranes; read-out: Nitrendipine Binding IC50
Here the recorded IC50 is given for each entry.
Give a bare numeral; the unit nM is implied.

For orientation, consider the following solved cases.
CC1=C(C(=O)OCCOC(=O)CCCCCCCCCc2ccccc2)C(c2c(F)cccc2Cl)C2=C(CS(=O)(=O)c3ccccc3S2(=O)=O)N1 (stereo not shown) [Compound 36]	116000
CC1=C(C(=O)OCCN)C(c2c(F)cccc2Cl)C2=C(CS(=O)(=O)c3ccccc3S2(=O)=O)N1 (stereo not shown) [Compound 26]	2000
CC1=C(C(=O)OCCOC(=O)C(C)C)C(c2c(F)cccc2Cl)C2=C(CS(=O)(=O)c3ccccc3S2(=O)=O)N1 (stereo not shown) [Compound 27]	26

Qu. I'd like to know its IC50. The compound in question is CC1=C(C(=O)OCCOC(=O)CCCCCCc2ccccc2)C(c2c(F)cccc2Cl)C2=C(CS(=O)(=O)c3ccccc3S2(=O)=O)N1 (stereo not shown) [Compound 35]
Ans. 60

Qu. Now consider CC1=C(C(=O)OCCOC(=O)C2CCCCC2)C(c2c(F)cccc2Cl)C2=C(CS(=O)(=O)c3ccccc3S2(=O)=O)N1 (stereo not shown) [Compound 24] and answer again.
Ans. 43

Qu. Okay, and CC1=C(C(=O)OCc2oc(=O)oc2-c2ccccc2)C(c2c(F)cccc2Cl)C2=C(CS(=O)(=O)c3ccccc3S2(=O)=O)N1 (stereo not shown) [Compound 40] ?
Ans. 11

Qu. Now give it for CC1=C(C(=O)OCCO)C(c2c(F)cccc2Cl)C2=C(C[S+]([O-])c3ccccc3S2(=O)=O)N1 (stereo not shown) [Compound 20] too.
Ans. 306

Qu. Cool, now CC1=C(C(=O)OCCOC(=O)/C=C/c2ccccc2)C(c2c(F)cccc2Cl)C2=C(CS(=O)(=O)c3ccccc3S2(=O)=O)N1 (stereo not shown) [Compound 37]
Ans. 101

Qu. Field entry: CC1=C(C(=O)OCCOC(=O)C(C)c2ccc(CC(C)C)cc2)C(c2c(F)cccc2Cl)C2=C(CS(=O)(=O)c3ccccc3S2(=O)=O)N1 (stereo not shown) [Compound 32]
Ans. 618

Qu. Same read-out for CC1=C(C(=O)OCCOC(=O)c2ccccc2)C(c2c(F)cccc2Cl)C2=C(CS(=O)(=O)c3ccccc3S2(=O)=O)N1 (stereo not shown) [Compound 23] ?
Ans. 30

Qu. CC1=C(C(=O)OCCCOC(=O)c2ccccc2)C(c2c(F)cccc2Cl)C2=C(CS(=O)(=O)c3ccccc3S2(=O)=O)N1 (stereo not shown) [Compound 34] ?
Ans. 188

Qu. Then this compound: CC1=C(C(=O)OCCO)C(c2c(F)cccc2Cl)C2=C(CS(=O)(=O)c3ccccc3S2(=O)=O)N1 (stereo not shown) [Compound 21]
Ans. 6070

Qu. Now try CC1=C(C(=O)OCCCO)C(c2c(F)cccc2Cl)C2=C(CS(=O)(=O)c3ccccc3S2(=O)=O)N1 (stereo not shown) [Compound 33] .
Ans. 1440
